Assay: Pharmacokinetic properties in CD-1 mouse
Type: in vivo
Settings: both sexes, plasma, 3 mg/kg, intravenous injection, single administration, read-out: Vss (apparent volume of distribution at steady state)
Measurement name: Vd
Reply with the number, then its unit.

Problem: Item under review: CC#CC(=O)N1CCC[C@H]1c1nc(-c2ccc(Oc3ccccc3)cc2)c2c(N)nccn12 . Reported Vd?
Solution: 1.3 L/kg

====

Assay: Pharmacokinetic properties in CD-1 mouse
Type: in vivo
Settings: both sexes, plasma, 15 mg/kg, oral, single administration, read-out: Tmax (peak time)
Measurement name: Tmax (min)
One number for each entry, in min.

Problem: Which Tmax is listed for CC#CC(=O)N1CCC[C@H]1c1nc(-c2ccc(Oc3ccccc3)cc2)c2c(N)nccn12 ?
Solution: 15
